Reference source for all entries: ChEMBL document CHEMBL3433997

We begin with a simple list: items and their reported inhibition.
Biological target: Glucose transporter (Leishmania mexicana) (UniProt O61059)
Test: ST_JUDE_LEISH: Cytotoxicity at 2uM final concentration against transgenic Leishmania Mexicana promastigotes LmGT2 that are glucose transport deficient and complemented with the L. Mexicana glucose transporter 2. Activity is measured by DNA content using SYBR green in vitro
Format: functional
# value in %; strip the unit string

>>> recorded_number("O=C1CN(C(=O)CCC2CCCC2)C(c2ccc(F)cc2)c2cc(F)ccc2N1 (centres undefined)")
0.37

Turning now to a further compound:
-- ask Requested read-out: inhibition. Entry: `Cc1cc(NCCC(=O)Nc2ccccc2)nc(NCCc2cccnc2)n1`
-- reply 1.5

====

Target: Glucose transporter (Leishmania mexicana)
Assay: ST_JUDE_LEISH: Cytotoxicity at 2uM final concentration against transgenic Leishmania Mexicana promastigotes LmGT2 that are glucose transport deficient and complemented with the L. Mexicana glucose transporter 2. Activity is measured by DNA content using SYBR green in vitro
Format: functional
Value Type: inhibition (%)
# value in %; strip the unit string

Examples with answers:
>>> recorded_number("O=c1cc(NCCCNC2CCc3ccc(Cl)cc32)[nH]c2ccccc12 (stereo not given)")
1.83
>>> recorded_number("CCCNCc1ccc(-c2ccc(CN(CCOC)C(=O)c3ccccc3)cc2)nc1")
1.11
>>> recorded_number("Cc1cc(CNCCCCCCNCc2ccc(Cl)cc2)ccc1O")
9.18
>>> recorded_number("CN1CCC(NC(=O)c2cc(Oc3ccc4c(c3)CCN4C(=O)Nc3cccc(C(F)(F)F)c3)ccn2)CC1")
1.74
>>> recorded_number("COc1cc(NCC(C)CNCc2cn(Cc3ccccc3)c3ccccc23)nc2ccccc12 (stereo not given)")
6.44
>>> recorded_number("CCn1ccc2c(N3CCCC3=O)cc(C(=O)N[C@@H](Cc3ccccc3)[C@H](O)CNC3CCCCC3)cc21")
0.18
>>> recorded_number("COc1ccc(C=NN=c2cc(C)[nH]c3ccccc23)c2ccccc12")
2.26
>>> recorded_number("COc1cc(Cc2cnc(N)nc2N)cc(OCC(C)(C)C(=O)O)c1OC")
-0.23
>>> recorded_number("CCCCCCCCn1ccc(=N)cc1")
0.3

Turning now to a further molecule:
-- ask For Glucose transporter (Leishmania mexicana), provide inhibition of `CC(C)CN1CCC(COc2ccc3ncn(-c4cc(O[C@H](C)c5ccccc5C(F)(F)F)c(C(N)=O)s4)c3c2)CC1` please.
-- reply 60.6

====

We begin with a simple list: items and their reported inhibition.
Target: Solute carrier family 2, facilitated glucose transporter member 1 (Homo sapiens)
Assay: ST_JUDE_LEISH: Cytotoxicity at 2uM final concentration against transgenic Leishmania Mexicana promastigotes LmGLUT1 that are glucose transport deficient and complemented with the human glucose transporter GLUT1. Activity is measured by DNA content using SYBR green in vitro
Type: functional
Please answer in the form of a number followed by its unit of measurement.

>>> result("CC(C)CNCc1ccc(-c2ccc(CN(C(=O)NCCc3ccccc3)C3CCN(Cc4ccccc4)CC3)cc2)cc1")
"71.6%"
>>> result("Cc1ccc(-c2cc(C(=O)Nc3ccc(S(=O)(=O)N4CCCCC4)cc3)[nH]n2)c(O)c1")
"0.86%"
>>> result("Fc1ccc(NC(=S)NCCc2ccccc2)cc1")
"0.73%"
>>> result("CCCCCCN1CCN(Cc2cccc(NC(=O)c3cccc(OCC)c3)c2)CC1")
"13.6%"
>>> result("CC(C)CCOc1ccc(NC(=O)c2cccs2)cc1")
"4.93%"
>>> result("CCCCCCNCc1c(O)ccc2c(CNCCCCCC)c(O)ccc12")
"-0.62%"
>>> result("O=C(c1ccccc1NN=C1C(=O)N(c2ccccc2)N=C1c1ccccc1)N1CCOCC1")
"-1.67%"
>>> result("CCOC(=O)CN1Cc2cc(NCc3ccc4ccc5nc(C)[nH]c(=O)c5c4c3)ccc2C1=O")
"0.55%"
>>> result("Clc1ccc(OCCC2CCN(CCCCCCCN3CCC(CCOc4ccc(Cl)c(Cl)c4)CC3)CC2)cc1Cl")
"9.59%"
>>> result("CCc1cc(Cc2cnc(N)nc2N)cc(CC)c1OC")
"2.48%"

-- ask For Solute carrier family 2, facilitated glucose transporter member 1 (Homo sapiens), provide inhibition of `CC1(C)N=C(N)N=C(N)N1c1cc(Cl)c(Cl)cc1Cl` please.
-- reply -2.58%

-- ask For Solute carrier family 2, facilitated glucose transporter member 1 (Homo sapiens), provide inhibition of CCCN(Cc1nnc(-c2cccs2)o1)C(=O)C1COc2ccccc2O1 (stereo not given) please.
-- reply 1.59%

-- ask For Solute carrier family 2, facilitated glucose transporter member 1 (Homo sapiens), provide inhibition of `O=C(Cc1c[nH]cn1)Nc1ccc(-c2cccc(-c3nc4cc(F)ccc4[nH]3)c2)cc1` please.
-- reply 1.49%

-- ask For Solute carrier family 2, facilitated glucose transporter member 1 (Homo sapiens), provide inhibition of `COc1ccc(NC(=O)/C=C/c2ccccc2Cl)cc1OCCN1CCC(N2CCN(C)CC2)CC1` please.
-- reply 4.65%

-- ask For Solute carrier family 2, facilitated glucose transporter member 1 (Homo sapiens), provide inhibition of CC1CCc2c(C(=O)Nc3c(F)cc(F)cc3Br)csc2C1 (stereo not given) please.
-- reply -0.18%

-- ask For Solute carrier family 2, facilitated glucose transporter member 1 (Homo sapiens), provide inhibition of N#Cc1cccc(Nc2nccc(NCC(O)c3ccc(C(F)(F)F)cc3)n2)c1 (stereo not given) please.
-- reply 3.05%

-- ask For Solute carrier family 2, facilitated glucose transporter member 1 (Homo sapiens), provide inhibition of `CC(C)CN(C)c1ncnc2c1nc(-c1cncc(C#N)c1)n2CCNCc1ccccc1` please.
-- reply 3.34%

-- ask For Solute carrier family 2, facilitated glucose transporter member 1 (Homo sapiens), provide inhibition of `N#Cc1ccc(NC(=O)NC2CCN(CCCCCNC(=O)/C=C/c3ccc(Cl)c(Cl)c3)CC2)cc1` please.
-- reply 3.11%

====

Biological target: Glucose transporter (Leishmania mexicana) (UniProt O61059)
Test: ST_JUDE_LEISH: Cytotoxicity at 2uM final concentration against transgenic Leishmania Mexicana promastigotes LmGT2 that are glucose transport deficient and complemented with the L. Mexicana glucose transporter 2. Activity is measured by DNA content using SYBR green in vitro
Assay type: functional
We begin with a simple list: items and their reported inhibition.
# value in %; strip the unit string

Examples with answers:
>>> recorded_number("O=C(Nc1ccc(-c2ccc(-c3nc4cc(C(F)(F)F)ccc4[nH]3)cc2)cc1)Nc1ccc(F)c(F)c1F")
-1.44
>>> recorded_number("O=C(/C=C/c1ccc(Cl)c(Cl)c1)NCCCCCN1CCCN(C(=S)Nc2ccc(Cl)cc2)CC1")
1.57
>>> recorded_number("COc1ccc2nccc([C@@H](O)CN3CCC(NCc4nc5ccccc5[nH]4)CC3)c2c1")
-0.97

-- ask Requested read-out: inhibition. Entry: `O=C(NCc1ccc(Cl)c(Cl)c1)c1cc(CNC2CCNCC2)ccc1O`
-- reply 2.11

-- ask Requested read-out: inhibition. Entry: `CN(Cc1c(Cl)cnn1C)S(=O)(=O)c1ccc2ccccc2c1`
-- reply 5.64

-- ask Requested read-out: inhibition. Entry: `N#Cc1cccc(-c2nc(NCc3cccc(C(F)(F)F)c3)nn2-c2cccc(C(F)(F)F)c2)c1`
-- reply -0.56

-- ask Requested read-out: inhibition. Entry: `COc1ccc(CN2CCC(CNCCc3ccccc3Cl)CC2)cc1`
-- reply 12.5

-- ask Requested read-out: inhibition. Entry: CC(CN1CCN(C)CC1)C(=O)Nc1ccc(-c2ccc(-c3nc4ccccc4[nH]3)s2)cc1 (stereo not drawn)
-- reply 3.56

====

Target: Solute carrier family 2, facilitated glucose transporter member 1 (Homo sapiens) (UniProt P11166)
Sequence (P11166 whole entry): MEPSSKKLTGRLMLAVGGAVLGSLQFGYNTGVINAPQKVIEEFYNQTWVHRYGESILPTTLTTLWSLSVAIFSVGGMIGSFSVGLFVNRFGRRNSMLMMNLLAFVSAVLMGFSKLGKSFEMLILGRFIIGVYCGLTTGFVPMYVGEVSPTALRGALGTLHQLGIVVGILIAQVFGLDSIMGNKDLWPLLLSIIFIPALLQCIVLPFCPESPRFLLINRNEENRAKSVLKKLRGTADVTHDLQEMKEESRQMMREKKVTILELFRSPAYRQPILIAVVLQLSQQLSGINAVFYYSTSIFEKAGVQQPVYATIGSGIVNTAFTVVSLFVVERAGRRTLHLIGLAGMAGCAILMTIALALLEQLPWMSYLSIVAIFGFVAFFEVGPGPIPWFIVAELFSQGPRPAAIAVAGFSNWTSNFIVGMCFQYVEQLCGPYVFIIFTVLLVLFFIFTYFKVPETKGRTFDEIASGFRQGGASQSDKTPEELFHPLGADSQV
Experiment: ST_JUDE_LEISH: Cytotoxicity at 2uM final concentration against transgenic Leishmania Mexicana promastigotes LmGLUT1 that are glucose transport deficient and complemented with the human glucose transporter GLUT1. Activity is measured by DNA content using SYBR green in vitro
Type: functional
We begin with a simple list: items and their reported inhibition.
Please answer in the form of a number followed by its unit of measurement.

Examples with answers:
>>> result("NC1=NC(c2ccccc2)(c2ccccc2)C(=O)N1Cc1ccc(-c2ccncc2)cc1")
"8.4%"
>>> result("CCCCCCN1CCCN(Cc2ccc(C(=O)Nc3ccc(Cl)cc3)cc2)CC1")
"12.3%"
>>> result("CC(=NNC(=N)N)c1ccc2ccc3ccccc3c2c1")
"0.27%"

-- ask Requested read-out: inhibition. Entry: `N=C(N)Nc1nc(-c2cccc(NC(=O)NCCc3c[nH]c4ccc(OCc5ccccc5)cc34)c2)cs1`
-- reply 0.6%

-- ask Requested read-out: inhibition. Entry: `CC(C)Cn1c(Sc2ccc(C#N)c([N+](=O)[O-])c2)nnc1-c1ccccc1Cl`
-- reply 3.45%

-- ask Requested read-out: inhibition. Entry: `CC(C)(C)COc1ccc2c(N)n[nH]c2c1`
-- reply -1.62%

====

Target: Solute carrier family 2, facilitated glucose transporter member 1 (Homo sapiens) (UniProt P11166)
Assay: ST_JUDE_LEISH: Cytotoxicity at 2uM final concentration against transgenic Leishmania Mexicana promastigotes LmGLUT1 that are glucose transport deficient and complemented with the human glucose transporter GLUT1. Activity is measured by DNA content using SYBR green in vitro
Type: functional
Value Type: inhibition (%)
# value in %; strip the unit string

>>> recorded_number("CCCCCCCN1CCC(NC(=O)Nc2ccnc3ccc(OC)cc23)C(C(=O)OCC)C1 (centres undefined)")
-2.21
>>> recorded_number("O=S(=O)(NC1CCN(c2ccnc3cc(Cl)ccc23)C1)c1cccs1 (centres undefined)")
0.41
>>> recorded_number("Cn1nc(-c2cccc(CN[C@@H]3CCc4ccc(O)cc43)c2)c2cnc(NC3CCCC3)nc21")
4.2
>>> recorded_number("Cc1cc(N[C@@H](CC(C)C)C(=O)NCCOc2ccccc2)nc(NCCc2ccccc2)n1")
1.89
>>> recorded_number("CSc1sc(NC(=O)Nc2cccc(C(F)(F)F)c2)cc1C#N")
1.55

-- ask Requested read-out: inhibition. Entry: `Cc1cccc2nc(-c3ccc(-c4ccc(CNCc5cnn(-c6ccccc6)n5)cc4)s3)[nH]c12`
-- reply -1.78

-- ask Requested read-out: inhibition. Entry: `O=C(/C=C/c1ccc(Cl)c(Cl)c1)NCCCCCN1CCC(NC(=O)c2ccc([N+](=O)[O-])cc2)CC1`
-- reply 12.2

-- ask Requested read-out: inhibition. Entry: `O=C(/C=C/c1ccc(Cl)c(Cl)c1)NCCCCCN1CCC(NC(=O)Nc2ccc(F)cc2F)CC1`
-- reply 1.35
